Reported IC50 values follow for various molecules
Molecular target: Tumor necrosis factor receptor superfamily member 1A (Homo sapiens)
Sequence (P19438 whole entry): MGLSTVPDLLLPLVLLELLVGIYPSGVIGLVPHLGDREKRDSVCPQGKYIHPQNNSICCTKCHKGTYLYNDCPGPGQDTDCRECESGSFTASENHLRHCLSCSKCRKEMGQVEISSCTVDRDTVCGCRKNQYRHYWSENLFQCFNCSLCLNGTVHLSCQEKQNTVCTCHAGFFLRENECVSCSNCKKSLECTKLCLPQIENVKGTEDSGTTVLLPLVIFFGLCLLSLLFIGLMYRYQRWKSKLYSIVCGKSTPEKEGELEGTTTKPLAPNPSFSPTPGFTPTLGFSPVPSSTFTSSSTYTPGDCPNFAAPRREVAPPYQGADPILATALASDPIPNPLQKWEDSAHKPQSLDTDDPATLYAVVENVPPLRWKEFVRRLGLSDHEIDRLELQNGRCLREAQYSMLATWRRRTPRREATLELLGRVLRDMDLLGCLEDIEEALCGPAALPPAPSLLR
Form entry: value (µM) — number only.

Here are 2 molecules together with their reported answers.
| compound-structure | study-target | measurement |
| --- | --- | --- |
| COc1ccc(Br)cc1/C=C/C(=O)c1cc(OC)c(OC)c(OC)c1 | Tumor necrosis factor receptor superfamily member 1A (Homo sapiens) | 1 |
| CCOc1ccc(/C=C/C(=O)c2cc(-c3cccs3)ccc2OC)cc1F | Tumor necrosis factor receptor superfamily member 1A (Homo sapiens) | 4 |

Ask: Can you look up the measured IC50 of `COc1cc(/C=C/C(=O)c2cc(OC)c(OCc3ccco3)c(OC)c2)cc(OC)c1OC` for me?
Result: 3

Ask: Let us now turn to `O=C(/C=C/c1ccc(F)c(-c2cccs2)c1)c1ccc(F)cc1`
Result: 4

Ask: Cool, now `COc1cc(OC)c(-c2cc3ccccc3s2)cc1/C=C/C(=O)c1ccc(OC)c(OC)c1`
Result: 11

* * *

Molecular target: Tumor necrosis factor receptor superfamily member 1A (Homo sapiens)
Sequence (P19438 whole entry): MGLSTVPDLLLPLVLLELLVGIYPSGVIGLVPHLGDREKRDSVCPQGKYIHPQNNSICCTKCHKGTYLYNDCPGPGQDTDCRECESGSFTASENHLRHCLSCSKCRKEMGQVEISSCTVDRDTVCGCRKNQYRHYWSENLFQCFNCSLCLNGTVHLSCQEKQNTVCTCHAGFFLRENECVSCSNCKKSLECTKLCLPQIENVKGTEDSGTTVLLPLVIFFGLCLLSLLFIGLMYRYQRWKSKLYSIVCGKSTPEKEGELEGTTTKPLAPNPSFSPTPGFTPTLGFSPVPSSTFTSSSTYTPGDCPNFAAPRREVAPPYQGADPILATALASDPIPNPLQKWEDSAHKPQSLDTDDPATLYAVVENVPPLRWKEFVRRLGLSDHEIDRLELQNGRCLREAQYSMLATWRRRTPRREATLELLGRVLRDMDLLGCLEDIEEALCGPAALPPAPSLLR
In this section, each of the compounds is paired with its reported pIC50.
The meaning of pIC50 here: minus log10 of the concentration in molar units.

| compound-structure | pIC50 |
| --- | --- |
| COc1ccc(-c2cc3ccccc3s2)cc1/C=C/C(=O)c1ccc(OC)c(OC)c1 | 5.70 |
| COc1ccc(-c2cccs2)cc1/C=C/C(=O)c1cc(OC)c(OCC(=O)O)c(OC)c1 | 6.00 |
| COc1cc(/C=C/C(=O)c2cc(OC)c(OCc3cccs3)c(OC)c2)cc(OC)c1OC | 5.52 |
| COc1ccc(-c2cc3ccccc3s2)cc1/C=C/C(=O)c1cc(OC)c(OC)c(OC)c1 | 5.70 |
| COc1ccc(-c2cccs2)cc1/C=C/C(=O)c1ccc(OCc2ccccn2)c(OC)c1 | 5.52 |
| COc1cc(OC)c(-c2cc3ccccc3s2)cc1/C=C/C(=O)c1ccc(SCC(=O)O)cc1 | 6.00 |
| COc1cc(OC)cc(C(=O)/C=C/c2cc(-c3cccs3)ccc2OC)c1 | 5.70 |

Now for another entry.
Ask: // pIC50 lookup, key: `COc1ccc(COc2c(OC)cc(C(=O)/C=C/c3cc(OC)c(OC)c(OC)c3)cc2OC)cc1OC`
Result: 5.70
